Below, each entry is listed alongside its reported OD at 560 nm.
Molecular target: T1, human ANGPTL8 (human, UniProt Q6UXH0 22-198)
T1 construct: Biotinylated in the ELISA assays; also called hANGPTL8; free ANGPTL8
T1 sequence: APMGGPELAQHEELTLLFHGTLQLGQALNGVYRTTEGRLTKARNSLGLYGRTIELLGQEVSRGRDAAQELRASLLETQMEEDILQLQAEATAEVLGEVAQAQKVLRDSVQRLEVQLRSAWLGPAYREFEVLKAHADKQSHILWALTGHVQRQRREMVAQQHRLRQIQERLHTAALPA
Test: ELISA; Ab captured by anti-human Fc; biotinylated antigen at 100 nM

binder	units-of-measure	OD at 560 nm
Ab with LC variant having a D33A mutation (SEQ ID NO:22) and a HC of SEQ ID NO:6 (antibody, human IgG4 S228P, kappa, F234A L235A, V domains shown, also called D33A Variant Ab; D33A Ab) VH: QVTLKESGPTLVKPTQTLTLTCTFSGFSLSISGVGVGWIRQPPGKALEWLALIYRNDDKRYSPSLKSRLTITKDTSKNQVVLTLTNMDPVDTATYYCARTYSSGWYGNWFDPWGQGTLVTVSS VL: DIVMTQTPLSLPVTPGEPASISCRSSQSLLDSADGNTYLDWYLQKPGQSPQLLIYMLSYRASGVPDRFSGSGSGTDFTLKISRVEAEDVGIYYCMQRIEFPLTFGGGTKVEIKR	OD 560 nm	0.078
Ab with LC variant having a E99Q mutation (SEQ ID NO:25) and a HC of SEQ ID NO:6 (antibody, human IgG4 S228P, kappa, F234A L235A, V domains shown, also called E99Q Variant Ab; E99Q Ab) VH: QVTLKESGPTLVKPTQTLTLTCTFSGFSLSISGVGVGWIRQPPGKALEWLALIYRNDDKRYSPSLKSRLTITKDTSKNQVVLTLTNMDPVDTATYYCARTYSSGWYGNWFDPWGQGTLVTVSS VL: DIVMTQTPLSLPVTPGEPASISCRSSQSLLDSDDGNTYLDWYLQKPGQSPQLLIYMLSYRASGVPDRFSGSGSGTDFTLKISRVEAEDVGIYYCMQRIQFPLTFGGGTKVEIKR	OD 560 nm	0.098
Ab with LC variant having a D31S mutation (SEQ ID NO:21) and a HC of SEQ ID NO:6 (antibody, human IgG4 S228P, kappa, F234A L235A, V domains shown, also called D31S Variant Ab; D31S Ab) VH: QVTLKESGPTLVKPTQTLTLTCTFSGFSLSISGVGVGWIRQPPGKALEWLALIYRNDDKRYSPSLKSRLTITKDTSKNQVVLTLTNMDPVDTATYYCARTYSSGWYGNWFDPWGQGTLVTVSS VL: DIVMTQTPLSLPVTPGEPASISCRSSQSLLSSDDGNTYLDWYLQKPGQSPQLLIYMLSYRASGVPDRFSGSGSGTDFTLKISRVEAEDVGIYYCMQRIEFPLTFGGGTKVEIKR	OD 560 nm	0.098
anti-ANGPTL3/8 complex Ab having a LC of SEQ ID NO:5 and a HC of SEQ ID NO:6 (antibody, human IgG4 S228P, kappa, F234A L235A, V domains shown, In the ELISA assays tested as IgG from CHO supernatants; also called the Ab) VH: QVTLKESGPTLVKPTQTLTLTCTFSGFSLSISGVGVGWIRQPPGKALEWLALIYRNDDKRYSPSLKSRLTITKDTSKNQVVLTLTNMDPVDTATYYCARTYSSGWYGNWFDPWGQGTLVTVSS VL: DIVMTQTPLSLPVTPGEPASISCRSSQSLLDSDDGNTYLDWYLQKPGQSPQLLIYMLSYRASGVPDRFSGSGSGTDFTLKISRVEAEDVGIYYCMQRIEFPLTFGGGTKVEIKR	OD 560 nm	0.072
